- testedOn: human CD33 L134M (human, UniProt P20138 18-364)
- Sequence (P20138 18-364 L134M limits assumed): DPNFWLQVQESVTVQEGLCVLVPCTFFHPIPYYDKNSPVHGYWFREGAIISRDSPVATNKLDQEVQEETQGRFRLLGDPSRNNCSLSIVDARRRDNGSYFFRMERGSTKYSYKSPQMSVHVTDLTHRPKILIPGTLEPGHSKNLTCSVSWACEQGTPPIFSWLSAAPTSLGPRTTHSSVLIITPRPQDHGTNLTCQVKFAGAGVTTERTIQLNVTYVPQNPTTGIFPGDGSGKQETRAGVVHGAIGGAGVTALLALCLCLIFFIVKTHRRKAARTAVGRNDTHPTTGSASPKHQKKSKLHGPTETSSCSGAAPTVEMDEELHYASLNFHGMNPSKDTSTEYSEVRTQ
- protocol: flow cytometry, HEK293-T, IgG;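 also: CD33 point mutants transiently expressed, antibody binding measured by fluorescence in duplicate, background subtracted and scaled to binding on wild-type CD33 as 100%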

binder	Mean % WT Binding [% WT binding]
Refmab #3 (antibody, human IgG1, V domains shown, tested in IgG format) VH: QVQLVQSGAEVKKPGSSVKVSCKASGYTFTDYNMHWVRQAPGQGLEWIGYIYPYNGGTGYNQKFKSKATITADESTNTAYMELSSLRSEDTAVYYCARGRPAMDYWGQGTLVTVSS VL: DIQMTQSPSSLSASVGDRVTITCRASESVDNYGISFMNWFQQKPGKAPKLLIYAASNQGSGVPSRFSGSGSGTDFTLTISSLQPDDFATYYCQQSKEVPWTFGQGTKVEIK	106

These measurements were taken from patent US20260242735A1.
